Below, each entry is listed alongside its reported binding intensity.
molecular target: T1, human ROR2 expressed on the cell surface (human, UniProt Q01974 34-943); assay: flow cytometry, NMB7 cells (neuroblastoma); design: unit not given here
T1 construct: Endogenous ROR2 of human tumour cell lines; also called cell surface ROR2; ROR2 on tumour cell lines
T1 sequence (Q01974 34-943 limits assumed): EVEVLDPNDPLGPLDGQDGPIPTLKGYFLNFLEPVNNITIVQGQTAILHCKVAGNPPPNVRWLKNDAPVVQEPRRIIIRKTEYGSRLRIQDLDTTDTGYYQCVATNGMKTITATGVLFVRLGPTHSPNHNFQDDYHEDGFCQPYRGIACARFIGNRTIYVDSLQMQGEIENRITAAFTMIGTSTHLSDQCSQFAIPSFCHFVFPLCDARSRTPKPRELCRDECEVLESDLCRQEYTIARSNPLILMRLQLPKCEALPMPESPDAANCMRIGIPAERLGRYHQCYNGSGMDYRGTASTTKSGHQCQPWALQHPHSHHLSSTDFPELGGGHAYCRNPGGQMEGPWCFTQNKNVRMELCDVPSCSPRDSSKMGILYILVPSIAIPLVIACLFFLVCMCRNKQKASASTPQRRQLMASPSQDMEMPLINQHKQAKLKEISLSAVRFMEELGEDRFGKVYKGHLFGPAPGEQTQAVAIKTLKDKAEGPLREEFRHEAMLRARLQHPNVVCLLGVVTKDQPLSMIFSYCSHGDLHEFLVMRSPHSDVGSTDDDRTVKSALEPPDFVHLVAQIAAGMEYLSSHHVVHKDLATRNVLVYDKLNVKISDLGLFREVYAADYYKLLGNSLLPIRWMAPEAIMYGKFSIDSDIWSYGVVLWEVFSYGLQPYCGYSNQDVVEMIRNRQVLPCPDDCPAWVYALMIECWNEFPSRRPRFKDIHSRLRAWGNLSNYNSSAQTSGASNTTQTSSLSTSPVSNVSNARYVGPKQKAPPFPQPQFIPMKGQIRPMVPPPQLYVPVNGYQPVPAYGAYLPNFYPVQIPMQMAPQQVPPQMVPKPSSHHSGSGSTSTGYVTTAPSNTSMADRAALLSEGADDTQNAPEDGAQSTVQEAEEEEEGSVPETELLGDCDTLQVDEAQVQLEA
Could you keep your reply to the number by itself?

Example entries begin here.
ROR2-90 full length human IgG1 antibody (antibody, V domains shown, also called clone #90; antibody #90) VH: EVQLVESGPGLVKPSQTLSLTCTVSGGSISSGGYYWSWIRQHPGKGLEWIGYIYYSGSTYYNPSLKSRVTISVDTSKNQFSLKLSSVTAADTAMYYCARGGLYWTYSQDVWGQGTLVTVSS VL: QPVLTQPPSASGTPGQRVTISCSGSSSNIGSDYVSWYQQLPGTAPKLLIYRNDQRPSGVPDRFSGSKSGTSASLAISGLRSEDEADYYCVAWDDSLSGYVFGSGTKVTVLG ... 47
ROR2-23 full length human IgG1 antibody (antibody, V domains shown, The light chain of clone 023 is labelled kappa; also called clone #23; clone #023 IgG1) VH: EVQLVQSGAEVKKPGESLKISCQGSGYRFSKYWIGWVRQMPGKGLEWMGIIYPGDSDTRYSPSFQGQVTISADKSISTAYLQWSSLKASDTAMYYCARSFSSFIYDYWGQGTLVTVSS VL: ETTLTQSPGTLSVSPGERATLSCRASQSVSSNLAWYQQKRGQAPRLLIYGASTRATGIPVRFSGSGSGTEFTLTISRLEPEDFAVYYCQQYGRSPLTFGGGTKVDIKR ... 35

Please give measured binding intensity of the following entry: ROR2-241 full length human IgG1 antibody (antibody, V domains shown) VH: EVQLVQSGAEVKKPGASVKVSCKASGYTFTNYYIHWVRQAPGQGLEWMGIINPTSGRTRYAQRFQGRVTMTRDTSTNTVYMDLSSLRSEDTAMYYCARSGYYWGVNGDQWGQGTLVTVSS VL: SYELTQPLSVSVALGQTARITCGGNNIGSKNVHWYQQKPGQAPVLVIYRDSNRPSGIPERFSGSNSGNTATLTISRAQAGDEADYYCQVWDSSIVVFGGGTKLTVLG
58

# credit: patent US20180127503A1
